target: Delta-type opioid receptor (Homo sapiens, UniProt P41143); assay: Antagonist activity at human delta opioid receptor expressed in CHO cell membrane assessed as reduction in SNC80-induced […]-GTPgammaS binding incubated for 1.5 hrs by liquid scintillation counting method
pEC50: −log10 of the molar value.
Property Measured: pEC50

given_smiles=O=C(Cc1cc[nH]n1)N[C@H]1CC[C@@]2(O)[C@H]3Cc4ccc(O)c5c4[C@@]2(CCN3CC2CC2)[C@H]1O5 experimental_system="Delta-type opioid receptor (Homo sapiens, UniProt P41143)" readout_value=7.69

---

target: Kappa-type opioid receptor (Mus musculus); test: Binding affinity to mouse kappa opioid receptor expressed in CHO cells in presence of U50488 incubated for 1.5 hrs by competitive radioligand binding assay
pKi: −log10 of the molar value.
Listed compounds paired with reported pKi
Property Measured: pKi

given_smiles=O=C(Cc1cc[nH]n1)N[C@@H]1CC[C@@]2(O)[C@H]3Cc4ccc(O)c5c4[C@@]2(CCN3CC2CC2)[C@H]1O5 experimental_system="Kappa-type opioid receptor (Mus musculus)" readout_value=8.30
given_smiles=O=C(CCc1cn[nH]c1)N[C@@H]1CC[C@@]2(O)[C@H]3Cc4ccc(O)c5c4[C@@]2(CCN3CC2CC2)[C@H]1O5 experimental_system="Kappa-type opioid receptor (Mus musculus)" readout_value=7.91
given_smiles=O=C(N[C@@H]1CC[C@@]2(O)[C@H]3Cc4ccc(O)c5c4[C@@]2(CCN3CC2CC2)[C@H]1O5)c1cc[nH]n1 experimental_system="Kappa-type opioid receptor (Mus musculus)" readout_value=9.02
given_smiles=O=C(Cc1ncc[nH]1)N[C@@H]1CC[C@@]2(O)[C@H]3Cc4ccc(O)c5c4[C@@]2(CCN3CC2CC2)[C@H]1O5 experimental_system="Kappa-type opioid receptor (Mus musculus)" readout_value=8.29
given_smiles=O=C(Cc1cnc[nH]1)N[C@@H]1CC[C@@]2(O)[C@H]3Cc4ccc(O)c5c4[C@@]2(CCN3CC2CC2)[C@H]1O5 experimental_system="Kappa-type opioid receptor (Mus musculus)" readout_value=8.32
given_smiles=O=C(N[C@H]1CC[C@@]2(O)[C@H]3Cc4ccc(O)c5c4[C@@]2(CCN3CC2CC2)[C@H]1O5)c1cc[nH]n1 experimental_system="Kappa-type opioid receptor (Mus musculus)" readout_value=8.98
given_smiles=O=C(N[C@H]1CC[C@@]2(O)[C@H]3Cc4ccc(O)c5c4[C@@]2(CCN3CC2CC2)[C@H]1O5)c1cnc[nH]1 experimental_system="Kappa-type opioid receptor (Mus musculus)" readout_value=8.56

---

Ki: recorded values
biological target: Delta-type opioid receptor (Homo sapiens, UniProt P41143); test: Binding affinity to human delta opioid receptor in presence of SNC80 incubated for 1.5 hrs by competitive radioligand binding assay
Property Measured: Ki (nM)

given_smiles=O=C(Cc1cc[nH]n1)N[C@H]1CC[C@@]2(O)[C@H]3Cc4ccc(O)c5c4[C@@]2(CCN3CC2CC2)[C@H]1O5 experimental_system="Delta-type opioid receptor (Homo sapiens, UniProt P41143)" readout_value=195
given_smiles=O=C(CCc1cn[nH]c1)N[C@H]1CC[C@@]2(O)[C@H]3Cc4ccc(O)c5c4[C@@]2(CCN3CC2CC2)[C@H]1O5 experimental_system="Delta-type opioid receptor (Homo sapiens, UniProt P41143)" readout_value=91.2
given_smiles=O=C(Cc1cnc[nH]1)N[C@@H]1CC[C@@]2(O)[C@H]3Cc4ccc(O)c5c4[C@@]2(CCN3CC2CC2)[C@H]1O5 experimental_system="Delta-type opioid receptor (Homo sapiens, UniProt P41143)" readout_value=74.5
given_smiles=O=C(CCc1ncc[nH]1)N[C@H]1CC[C@@]2(O)[C@H]3Cc4ccc(O)c5c4[C@@]2(CCN3CC2CC2)[C@H]1O5 experimental_system="Delta-type opioid receptor (Homo sapiens, UniProt P41143)" readout_value=3.94
given_smiles=O=C(CCc1cn[nH]c1)N[C@@H]1CC[C@@]2(O)[C@H]3Cc4ccc(O)c5c4[C@@]2(CCN3CC2CC2)[C@H]1O5 experimental_system="Delta-type opioid receptor (Homo sapiens, UniProt P41143)" readout_value=97.8
given_smiles=O=C(Cc1cn[nH]c1)N[C@H]1CC[C@@]2(O)[C@H]3Cc4ccc(O)c5c4[C@@]2(CCN3CC2CC2)[C@H]1O5 experimental_system="Delta-type opioid receptor (Homo sapiens, UniProt P41143)" readout_value=3440
given_smiles=O=C(Cc1cc[nH]n1)N[C@@H]1CC[C@@]2(O)[C@H]3Cc4ccc(O)c5c4[C@@]2(CCN3CC2CC2)[C@H]1O5 experimental_system="Delta-type opioid receptor (Homo sapiens, UniProt P41143)" readout_value=36.8
given_smiles=O=C(N[C@@H]1CC[C@@]2(O)[C@H]3Cc4ccc(O)c5c4[C@@]2(CCN3CC2CC2)[C@H]1O5)c1ncc[nH]1 experimental_system="Delta-type opioid receptor (Homo sapiens, UniProt P41143)" readout_value=146
given_smiles=O=C(Cc1cn[nH]c1)N[C@@H]1CC[C@@]2(O)[C@H]3Cc4ccc(O)c5c4[C@@]2(CCN3CC2CC2)[C@H]1O5 experimental_system="Delta-type opioid receptor (Homo sapiens, UniProt P41143)" readout_value=66.6
given_smiles=O=C(CCc1cc[nH]n1)N[C@H]1CC[C@@]2(O)[C@H]3Cc4ccc(O)c5c4[C@@]2(CCN3CC2CC2)[C@H]1O5 experimental_system="Delta-type opioid receptor (Homo sapiens, UniProt P41143)" readout_value=217
given_smiles=O=C(CCc1ncc[nH]1)N[C@@H]1CC[C@@]2(O)[C@H]3Cc4ccc(O)c5c4[C@@]2(CCN3CC2CC2)[C@H]1O5 experimental_system="Delta-type opioid receptor (Homo sapiens, UniProt P41143)" readout_value=55.8
given_smiles=O=C(N[C@H]1CC[C@@]2(O)[C@H]3Cc4ccc(O)c5c4[C@@]2(CCN3CC2CC2)[C@H]1O5)c1cnc[nH]1 experimental_system="Delta-type opioid receptor (Homo sapiens, UniProt P41143)" readout_value=32.5
given_smiles=O=C(CCc1cc[nH]n1)N[C@@H]1CC[C@@]2(O)[C@H]3Cc4ccc(O)c5c4[C@@]2(CCN3CC2CC2)[C@H]1O5 experimental_system="Delta-type opioid receptor (Homo sapiens, UniProt P41143)" readout_value=42.2
given_smiles=O=C(N[C@@H]1CC[C@@]2(O)[C@H]3Cc4ccc(O)c5c4[C@@]2(CCN3CC2CC2)[C@H]1O5)c1cc[nH]n1 experimental_system="Delta-type opioid receptor (Homo sapiens, UniProt P41143)" readout_value=14.5

---

Measured Emax, listed per entry.
molecular target: Mu-type opioid receptor (Mus musculus); assay: Antagonist activity at mouse mu opioid receptor expressed in CHO cell membrane assessed as reduction in DAMGO-induced […]-GTPgammaS binding by measuring maximal efficacy incubated for 1.5 hrs by liquid scintillation counting method relative to control; format: functional, cell membranes
Property Measured: Emax (%)

given_smiles=O=C(Cc1cn[nH]c1)N[C@@H]1CC[C@@]2(O)[C@H]3Cc4ccc(O)c5c4[C@@]2(CCN3CC2CC2)[C@H]1O5 readout_value=22.2
given_smiles=O=C(CCc1cc[nH]n1)N[C@@H]1CC[C@@]2(O)[C@H]3Cc4ccc(O)c5c4[C@@]2(CCN3CC2CC2)[C@H]1O5 readout_value=13.2
given_smiles=O=C(N[C@@H]1CC[C@@]2(O)[C@H]3Cc4ccc(O)c5c4[C@@]2(CCN3CC2CC2)[C@H]1O5)c1cn[nH]c1 readout_value=16.3
given_smiles=O=C(CCc1cnc[nH]1)N[C@@H]1CC[C@@]2(O)[C@H]3Cc4ccc(O)c5c4[C@@]2(CCN3CC2CC2)[C@H]1O5 readout_value=15.7
given_smiles=O=C(Cc1cn[nH]c1)N[C@H]1CC[C@@]2(O)[C@H]3Cc4ccc(O)c5c4[C@@]2(CCN3CC2CC2)[C@H]1O5 readout_value=28.4
given_smiles=O=C(N[C@H]1CC[C@@]2(O)[C@H]3Cc4ccc(O)c5c4[C@@]2(CCN3CC2CC2)[C@H]1O5)c1cc[nH]n1 readout_value=19.6
given_smiles=O=C(N[C@@H]1CC[C@@]2(O)[C@H]3Cc4ccc(O)c5c4[C@@]2(CCN3CC2CC2)[C@H]1O5)c1cc[nH]n1 readout_value=10.9
given_smiles=O=C(Cc1cc[nH]n1)N[C@@H]1CC[C@@]2(O)[C@H]3Cc4ccc(O)c5c4[C@@]2(CCN3CC2CC2)[C@H]1O5 readout_value=20.4
given_smiles=O=C(N[C@H]1CC[C@@]2(O)[C@H]3Cc4ccc(O)c5c4[C@@]2(CCN3CC2CC2)[C@H]1O5)c1cnc[nH]1 readout_value=20.7
given_smiles=O=C(CCc1cn[nH]c1)N[C@@H]1CC[C@@]2(O)[C@H]3Cc4ccc(O)c5c4[C@@]2(CCN3CC2CC2)[C@H]1O5 readout_value=10.7
given_smiles=O=C(CCc1cn[nH]c1)N[C@H]1CC[C@@]2(O)[C@H]3Cc4ccc(O)c5c4[C@@]2(CCN3CC2CC2)[C@H]1O5 readout_value=14.2
given_smiles=O=C(Cc1ncc[nH]1)N[C@H]1CC[C@@]2(O)[C@H]3Cc4ccc(O)c5c4[C@@]2(CCN3CC2CC2)[C@H]1O5 readout_value=19.2
given_smiles=O=C(CCc1cc[nH]n1)N[C@H]1CC[C@@]2(O)[C@H]3Cc4ccc(O)c5c4[C@@]2(CCN3CC2CC2)[C@H]1O5 readout_value=22.2
given_smiles=O=C(CCc1ncc[nH]1)N[C@@H]1CC[C@@]2(O)[C@H]3Cc4ccc(O)c5c4[C@@]2(CCN3CC2CC2)[C@H]1O5 readout_value=17.7
given_smiles=O=C(CCc1ncc[nH]1)N[C@H]1CC[C@@]2(O)[C@H]3Cc4ccc(O)c5c4[C@@]2(CCN3CC2CC2)[C@H]1O5 readout_value=21.7
